Data provenance is patent US20220048967A1.

- target_desc: human GLP-1 receptor (human, UniProt P43220 24-463)
- experimental_protocol: cell-based or functional assay
Square brackets hold non-standard residues; d marks the D form. Side chains are listed from the residue outwards. Ends that are not written are not given here. * marks the point of attachment. C20 diacid = O=C(O)CCCCCCCCCCCCCCCCCCC(=O)*; αMeF = C[C@](N)(Cc1ccccc1)C(=O)O; αMeK = C[C@](N)(CCCCN)C(=O)O; Dab = NCC[C@H](N)C(=O)O; AEEA = NCCOCCOCC(=O)O; Aib = CC(C)(N)C(=O)O
Would you mind labelling by hGLP1R cAMP Rel EC50? At or over 0.4 nM is met, under is not met.

YXEGTXTSDYSILLDKIAQXAFIEYLIKGG (Aib2; αMeF6; Aib20; K28((2-[2-(2-Amino-ethoxy)-ethoxy]-acetyl)2-(γ-Glu)-CO-(CH2)18-CO2H); C-terminal NH2) [Example 95]
met

**Q:** Does YXEGTFTSDYSXLLDKKAQXAFIEYLIEGGPSSGAPPPS (Aib2; D-Ile12; K17((2-[2-(2-Amino-ethoxy)-ethoxy]-acetyl)2-(γ-Glu)-CO-(CH2)18-CO2H); Aib20; C-terminal NH2) [Example 82] have a reported hGLP1R cAMP Rel EC50 of at least 0.4 nM?
**A:** met

**Q:** Does the reported hGLP1R cAMP Rel EC50 for YXEGTFTSDYSILLDKKAQXAFIXYLIEGGPSSGAPPPS (Aib2; K17((2-[2-(2-Amino-ethoxy)-ethoxy]-acetyl)2-(γ-Glu)-CO-(CH2)18-CO2H); Aib20; D-Glu24; C-terminal NH2) [Example 84] fall at or above the 0.4 nM mark?
**A:** not met

**Q:** State whether the measured hGLP1R cAMP Rel EC50 reaches 0.4 nM, counting equality as reaching it, for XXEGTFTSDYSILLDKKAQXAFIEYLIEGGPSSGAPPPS (DesTyr1; Aib2; K17((2-[2-(2-Amino-ethoxy)-ethoxy]-acetyl)2-(γ-Glu)-CO-(CH2)18-CO2H); Aib20; C-terminal NH2) [Example 107]
**A:** not met

**Q:** Please indicate if the recorded hGLP1R cAMP Rel EC50 for H[Aib]EGTFTSDYSI[αMeF]LDKK([Dab-AEEA-Dab-AEEA-C20 diacid])AQ[αMeK]AFIQYLLA[Aib]GPSSGAPKPS-NH2 [Example 18] meets or exceeds 0.4 nM.
**A:** not met

**Q:** Kindly determine if hGLP1R cAMP Rel EC50 recorded for YXEGTFTSDYSILLDKKAQXAFIEYLIXGGPSSGAPPPS (Aib2; K17((2-[2-(2-Amino-ethoxy)-ethoxy]-acetyl)2-(γ-Glu)-CO-(CH2)18-CO2H); Aib20; D-Glu28; C-terminal NH2) [Example 83] is above or exactly 0.4 nM.
**A:** not met
